Target: Sterol O-acyltransferase 1 (Rattus norvegicus, UniProt O70536)
Sequence (O70536 whole entry): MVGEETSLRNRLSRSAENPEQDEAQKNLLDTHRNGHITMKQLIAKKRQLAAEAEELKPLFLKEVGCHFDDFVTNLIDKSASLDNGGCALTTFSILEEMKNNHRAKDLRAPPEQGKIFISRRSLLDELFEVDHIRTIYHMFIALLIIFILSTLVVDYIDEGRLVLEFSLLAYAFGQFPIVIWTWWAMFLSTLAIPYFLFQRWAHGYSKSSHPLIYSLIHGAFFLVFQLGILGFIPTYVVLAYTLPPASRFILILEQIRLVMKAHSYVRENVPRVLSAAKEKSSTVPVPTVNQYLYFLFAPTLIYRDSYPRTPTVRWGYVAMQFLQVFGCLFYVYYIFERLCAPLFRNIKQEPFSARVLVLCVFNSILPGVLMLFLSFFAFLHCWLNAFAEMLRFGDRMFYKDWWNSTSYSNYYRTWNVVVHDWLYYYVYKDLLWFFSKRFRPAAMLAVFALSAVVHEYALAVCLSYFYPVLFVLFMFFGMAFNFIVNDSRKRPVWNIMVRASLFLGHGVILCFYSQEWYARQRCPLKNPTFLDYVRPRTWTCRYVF
pIC50: −log10 of the molar value.
Readout Name: pIC50

For each of the compounds below, state pIC50.
1. CC(C)c1cc([N+](=O)[O-])cc(C(C)C)c1OC(=O)NS(=O)(=O)Oc1c(C(C)C)cccc1C(C)C
2. CC(C)c1cccc(C(C)C)c1OC(=O)NS(=O)(=O)Oc1ccccc1
3. COc1cc(OC)c(OS(=O)(=O)NC(=O)Oc2c(C(C)C)cccc2C(C)C)c(OC)c1
4. CC(C)c1cccc(C(C)C)c1OS(=O)(=O)NC(=O)Oc1cccnc1

1. < 4.30
2. < 4.30
3. < 4.30
4. < 4.30

---

Give measured Delta TC for each item. Keep answers brief.
System: Rattus norvegicus
Assay: Acute in vivo activity measured by total plasma cholesterol concentration levels (TC) at 30 mg/kg dose
Format: functional
Give bare numbers, in %.

Example entries and their recorded answers appear below.
In [3]: df
Out[3]:
                                   compound    measured_target  unit_name  recorded_measurement
0  COc1cccc(OC)c1OC(=O)NS(=O)(=O)Oc1c(C(C)C)cccc1C(C)C  Rattus norvegicus          %                   -61
1  CCC(C)N(C(=O)NS(=O)(=O)Oc1c(C(C)C)cccc1C(C)C)C(C)CC (stereo not drawn)  Rattus norvegicus          %                   -20

Here's the next entry for you.
Report Delta TC for "COc1cc(OC)c(OS(=O)(=O)NC(=O)Oc2c(C(C)C)cccc2C(C)C)c(OC)c1"
-61
